Measured on: T1, cynomolgus monkey CD112R (cynomolgus monkey)
T1 construct: also called cyno CD112R
T1 chain: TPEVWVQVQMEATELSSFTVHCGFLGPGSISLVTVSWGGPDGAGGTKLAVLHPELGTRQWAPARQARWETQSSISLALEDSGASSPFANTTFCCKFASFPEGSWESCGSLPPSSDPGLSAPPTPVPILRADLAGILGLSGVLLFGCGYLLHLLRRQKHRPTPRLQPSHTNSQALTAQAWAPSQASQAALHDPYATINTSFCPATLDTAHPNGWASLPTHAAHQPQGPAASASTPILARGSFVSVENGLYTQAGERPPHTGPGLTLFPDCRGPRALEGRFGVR
Run description: flow cytometry, titration on activated cyno PBMCs
Recorded EC50 values for a group of binders are listed next.
Your answer is read as µg/mL, so omit the unit and give the number.

# Binder, Endpoint unit, EC50
records = [
    ("24F1 (antibody, V domains shown, Fully human XenoMouse antibody, tested as hybridoma supernatant) VH: EVQLVESGGGLVQPGGSLRLSCAASGFTFSRDDMHWVRQATGKGLEWVAGIDNAGDTYYPGSVKGRFTISRENAKNSLYLQMNSLRAGDTAIYYCAREGQWPYGMDVWGQGTTVTVSS VL: DIQMTQSPSSLSASVGDRVTITCRASQGIRNDLGWYQQKPGKAPKRLIYSASSLQSGVSSRFSGSGSGTEFTLTISSLQPEDFATYYCLQSNSYPLTFGGGTKVEIKR", "µg/mL", 0.0334),
    ("27G12 (antibody, V domains shown, Fully human XenoMouse antibody, tested as hybridoma supernatant) VH: QVQLVQSGGEVKKPGASVKVSCKASGFTFTSYDINWVRQATGQGLEWMGWMNHYSGDSDYAQKLQGRVIITRNTSITTAYMELSSLRSEDTAVYYCGRERFPFGMDVWGQGTTVTVSS VL: DIQMTHSPSSLSASIGDRVTITCRASQGIRNELGWYQKKPGKAPKRLIYSASSLQSGVPSRFSGSGSGTEFTLTISSLQPEDFATYYCLQHNTYPLTFGGGTKVEIK", "µg/mL", 0.174),
    ("1E1 (antibody, V domains shown, Fully human XenoMouse antibody, tested as hybridoma supernatant or purified mAb; also called 18C10) VH: QVQLVQSGAEVKKPGASVKVSCQASGYTFTDYYIYWVRQAPGQGLEWMGWINPNSGGTNYAQKFQGRVTMTRDTSISTAYIELSRLRSDDTAVYYCAREDNFNGMDVWGQGTTVTVSS VL: DIQMTQSPSSLSASVGDRVTITCRASQGIRNDLGWYQQKPGKAPKRLIYAASSLQSGVPSRFSGSGSGTEFTLTISSLQPEDFATYYCLQLNSYPLTFGGGTKVEIKR", "µg/mL", 0.0087),
    ("29E10 (antibody, V domains shown, Fully human XenoMouse antibody, tested as hybridoma supernatant) VH: EVQLVESGGGLVQPGGSLRLSCAASGFTFRNYDMHWVRQVPGKGLEWVSDIGNSGETYYLGSVKGRFTISRENAKNSLYLQMNSLRAGDTAVYYCVREEFGYGMDVWGQGTTVTVSS VL: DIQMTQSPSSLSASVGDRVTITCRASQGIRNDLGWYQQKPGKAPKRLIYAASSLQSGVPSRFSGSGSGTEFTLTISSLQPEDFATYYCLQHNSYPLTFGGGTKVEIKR", "µg/mL", 0.0322),
]

// next item, EC50 requested
// recorded EC50 for 31B3 (antibody, V domains shown, Fully human XenoMouse antibody, tested as hybridoma supernatant) VH: QVQLVESGGGVVQPGRSLRLSCAASGFTFSYYGMHWVRQAPGKGLEWVALISYDGNNKYYVDSVRGRFTISRDNSKNTLSLQMNSLRAEDTAVYYCAREIFGESYYYGMDVWGQGTTVTVSS VL: EIVMTQSPATLSVSPGERATLSCRASQSISRNLAWYQQKPGQAPRLLIYGASIRATVIPARFSGSGSGTEFTLTISSLQSEDFAIYYCQQYNNWMCSFGQGTKLEIK : 0.898
